Hi there, I'd appreciate the recorded ddG of mutation (higher = less stable) for every entry that follows.
B1: Ribonuclease, P00648 (parent)
chain: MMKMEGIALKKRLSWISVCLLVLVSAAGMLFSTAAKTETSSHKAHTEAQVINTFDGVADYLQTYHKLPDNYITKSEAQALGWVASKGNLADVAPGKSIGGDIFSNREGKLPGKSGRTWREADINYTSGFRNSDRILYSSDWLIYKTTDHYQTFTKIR

- Variants of: B1
- protocol-conditions: Bacillus amyloliquefaciens; pH 4.4; 25 °C; Thermal; DSC; Sodium acetate/Acetic acid 6.08 mM/13.92 mM/; reversible: yes (>95%); structure 1BNI; whole UniProt chain shown
// units = kcal/mol; emit number, no label

Incoming: I'd like to know its ddG of mutation (higher = less stable). The variant in question is R116M
Outgoing: 2.86

Incoming: // query ddG of mutation (higher = less stable) value for entry D59G
Outgoing: 0.78

Incoming: Which value of ddG of mutation (higher = less stable) has been reported for T73G in the records?
Outgoing: 2.08

Incoming: Consider the variant shown here: D55A What is its recorded ddG of mutation (higher = less stable)?
Outgoing: 0.69

Incoming: Give the measured ddG of mutation (higher = less stable) of T63R .
Outgoing: -0.2

Incoming: I would be grateful if you could share the reported ddG of mutation (higher = less stable) for I135V .
Outgoing: 1.47

Incoming: Param item = D69M ; retrieve measured ddG of mutation (higher = less stable).
Outgoing: 0.27

Incoming: Param item = I98V ; retrieve measured ddG of mutation (higher = less stable).
Outgoing: 1.86

Incoming: Please report the recorded ddG of mutation (higher = less stable) for S139A .
Outgoing: 2.83

Incoming: What value of measured ddG of mutation (higher = less stable) is listed for R130Q ?
Outgoing: 1.58

Data provenance: FireProtDB (doi:10.1093/protein/7.9.1089)
